Test system: HCC-366
Assay: relative viability (nuclei count vs DMSO), 5 days (fraction); higher = more cells survive
Details: first compound 0.08 µM
Rule: relative viability below 0.8 gives Met, anything at or above gives Not met.

compound	class
COc1nc(C)cnc1NS(=O)(=O)c1cccnc1-c1ccc(-c2nnco2)cc1 [Zibotentan] + Cc1nc(Nc2ncc(C(=O)Nc3c(C)cccc3Cl)s2)cc(N2CCN(CCO)CC2)n1 [Dasatinib] (partner 0.075 µM)	Met
O=c1cc(-c2cccc3c2Sc2ccccc2S3)oc(N2CCOCC2)c1 + CS(=O)(=O)N1CCN(Cc2cc3nc(-c4cccc5[nH]ncc45)nc(N4CCOCC4)c3s2)CC1 [Pictilisib] (partner 1 µM)	Met
O=c1cc(-c2cccc3c2Sc2ccccc2S3)oc(N2CCOCC2)c1 + CS(=O)(=O)CCNCc1ccc(-c2ccc3ncnc(Nc4ccc(OCc5cccc(F)c5)c(Cl)c4)c3c2)o1 [Lapatinib] (partner 2 µM)	Not met
COc1nc(C)cnc1NS(=O)(=O)c1cccnc1-c1ccc(-c2nnco2)cc1 [Zibotentan] + Nc1nc2[nH]cc(CCc3ccc(C(=O)N[C@@H](CCC(=O)O)C(=O)O)cc3)c2c(=O)[nH]1 [Pemetrexed] (partner 0.2 µM)	Met
O=c1cc(-c2cccc3c2Sc2ccccc2S3)oc(N2CCOCC2)c1 + COc1cccc2cc(-c3nc([C@H]4CC[C@H](C(=O)O)CC4)n4ncnc(N)c34)[nH]c12 [OSI-027] (partner 0.5 µM)	Not met
O=c1cc(-c2cccc3c2Sc2ccccc2S3)oc(N2CCOCC2)c1 + CC(C)C[C@H](NC(=O)[C@H](Cc1ccccc1)NC(=O)c1cnccn1)B(O)O [Bortezomib] (partner 0.002 µM)	Not met
O=c1cc(-c2cccc3c2Sc2ccccc2S3)oc(N2CCOCC2)c1 + COc1cc2c(Oc3ccc(NC(=O)C4(C(=O)Nc5ccc(F)cc5)CC4)cc3F)ccnc2cc1OCCCN1CCOCC1 [Foretinib] (partner 0.25 µM)	Not met
COc1nc(C)cnc1NS(=O)(=O)c1cccnc1-c1ccc(-c2nnco2)cc1 [Zibotentan] + C[C@@H](Oc1cc(-c2cnn(C3CCNCC3)c2)cnc1N)c1c(Cl)ccc(F)c1Cl [Crizotinib] (partner 1 µM)	Met

Take the compound O=c1cc(-c2cccc3c2Sc2ccccc2S3)oc(N2CCOCC2)c1 + N=C(N)NC(=N)NCCc1ccccc1 [Phenformin] (partner 250 µM) and say whether its relative viability is less than 0.8.
Met

Take the compound COc1nc(C)cnc1NS(=O)(=O)c1cccnc1-c1ccc(-c2nnco2)cc1 [Zibotentan] + COc1cccc2cc(-c3nc([C@H]4CC[C@H](C(=O)O)CC4)n4ncnc(N)c34)[nH]c12 [OSI-027] (partner 0.5 µM) and say whether its relative viability is less than 0.8.
Not met
